Assay: Oral bioavailability in CD-1 mouse at 10 mg/kg
Assay type: ADME, organism-based
Settings: in vivo
PARAMETER_MEASURED: bioavailability

Q) Given the compound CC(c1c[nH]c(=O)c2ccccc12)N(C)C(=O)Nc1ccc(F)c(Cl)c1 (stereo unspecified) , what is its reported bioavailability?
A) 80%

###

Assay: Half-life in CD-1 mouse at 2 mg/kg, iv
Type: ADME, organism-based
Details: in vivo
PARAMETER_MEASURED: half-life (h)
Response body: numeric value in h, unit text excluded.

Q) Given the compound CC(c1c[nH]c(=O)c2ccccc12)N(C)C(=O)Nc1ccc(F)c(Cl)c1 (stereo unspecified) , what is its reported half-life?
A) 2.4
